# TARGET_SYSTEM: Proto-oncogene tyrosine-protein kinase Src (Homo sapiens)
# Sequence (P12931 2-536 limits assumed): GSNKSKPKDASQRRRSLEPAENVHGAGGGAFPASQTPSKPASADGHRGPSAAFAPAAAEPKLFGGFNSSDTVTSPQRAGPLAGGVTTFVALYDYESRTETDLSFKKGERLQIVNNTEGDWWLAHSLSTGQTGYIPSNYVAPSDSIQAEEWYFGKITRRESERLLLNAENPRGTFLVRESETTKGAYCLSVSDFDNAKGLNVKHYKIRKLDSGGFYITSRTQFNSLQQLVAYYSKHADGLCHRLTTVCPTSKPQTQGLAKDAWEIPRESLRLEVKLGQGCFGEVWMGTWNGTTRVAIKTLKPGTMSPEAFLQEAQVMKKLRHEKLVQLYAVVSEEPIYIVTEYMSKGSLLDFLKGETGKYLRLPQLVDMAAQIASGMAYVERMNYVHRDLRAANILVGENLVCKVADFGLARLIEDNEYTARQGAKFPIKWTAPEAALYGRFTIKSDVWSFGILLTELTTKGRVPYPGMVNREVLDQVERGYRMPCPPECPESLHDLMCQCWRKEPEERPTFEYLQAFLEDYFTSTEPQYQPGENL
pIC50: −log10 of the molar value.
Entry flag: 1 if pIC50 reaches 5; 0 if it does not.

CC(=O)N[C@@H](Cc1ccc(OP(=O)(O)O)cc1)C(=O)N[C@@H](C)C(=O)NCCCc1ccccc1	0
CC(=O)N[C@@H](Cc1ccc(OP(=O)(O)O)cc1)C(=O)N[C@@H](C)C(=O)N(CCCC(=O)O)CCCc1ccccc1	1
CC(=O)N[C@@H](Cc1ccc(OP(=O)(O)O)cc1)C(=O)N[C@@H](CCC(=O)O)C(=O)NCCc1cccc2ccccc12	1
CCc1ccccc1CCNC(=O)[C@H](CCC(=O)O)NC(=O)[C@H](Cc1ccc(OP(=O)(O)O)cc1)NC(C)=O	1
CC(=O)N[C@@H](Cc1ccc(OP(=O)(O)O)cc1)C(=O)N[C@@H](CCC(=O)O)C(=O)N[C@@H](CCC(N)=O)Cc1cccc2ccccc12	1

Okay, now this molecule:
Determine whether this molecule has pIC50 no lower than 5: CC(=O)N[C@@H](Cc1ccc(OP(=O)(O)O)cc1)C(=O)N[C@@H](Cc1ccc(OP(=O)(O)O)cc1)C(=O)NCCCc1ccccc1
1
